Overview of reported pIC50 across a group of molecules:
# System name: human recombinant PDE9 protein (Homo sapiens)
# Sequence (O76083 whole entry): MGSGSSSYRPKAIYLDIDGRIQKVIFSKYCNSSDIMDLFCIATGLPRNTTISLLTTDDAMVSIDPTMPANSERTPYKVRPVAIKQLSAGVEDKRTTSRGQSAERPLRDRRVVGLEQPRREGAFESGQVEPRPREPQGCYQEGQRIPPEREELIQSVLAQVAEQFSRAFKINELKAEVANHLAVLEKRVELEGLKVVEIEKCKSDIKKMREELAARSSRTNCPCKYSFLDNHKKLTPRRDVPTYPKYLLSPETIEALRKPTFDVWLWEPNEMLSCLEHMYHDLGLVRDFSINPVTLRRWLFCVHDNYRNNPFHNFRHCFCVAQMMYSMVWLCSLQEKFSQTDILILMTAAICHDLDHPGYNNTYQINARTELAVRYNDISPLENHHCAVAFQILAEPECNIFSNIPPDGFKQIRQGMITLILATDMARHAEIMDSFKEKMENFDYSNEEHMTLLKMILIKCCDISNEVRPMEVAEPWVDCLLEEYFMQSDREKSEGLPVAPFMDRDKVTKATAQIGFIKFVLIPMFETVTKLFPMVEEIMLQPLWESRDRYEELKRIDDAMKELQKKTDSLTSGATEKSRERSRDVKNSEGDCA
# Assay details: PDE9 inhibitory activity test ([3H]-cGMP hydrolysis)
# From the text: An hsPDE9A 1cDNA fragment was amplified by being based on a base sequence (Accession No.: AF048837) of the hsPDE9A1 registered on GenBank data base, and by using the following sequences (Hokkaido System Science Co., Ltd.) as a primer and Human hippocampus cDNA library (Clontech Laboratories, Inc.) as a template DNA, and using Pfu50 DNA polymerase (Invitrogen Corp.), and by a polymerase chain reaction (PCR) of the following condition. […]
Note on pIC50: it is the negative log10 of concentration, concentration in mol/L.

COc1nc(C)cc(C)c1-c1ccc2c(c1)[nH]c(=O)c1cnn([C@@H]3CCOC[C@@H]3C)c12 (single isomer, unassigned) [Example 2b]; 8.43
COc1nc(C)cc(C)c1-c1ccc2c(c1)[nH]c(=O)c1cnn([C@@H]3CCOC[C@@H]3C)c12 (single isomer, unassigned) [Example 2c]; 7.91
COc1ncc(C)c(-c2ccc3c(c2)[nH]c(=O)c2cnn([C@H]4CC[C@H](OC)CC4)c23)c1C; 7.90

Now take the following molecule into account.
## Input Using the record for COc1ncc(C)c(-c2ccc3c(c2)[nH]c(=O)c2cnn([C@H]4CC[C@@H](OC)CC4)c23)c1C , report its pIC50.
## Output 8.01
